Tested on: SK-MEL-28
Test: NCI tumour cell line growth inhibition, 48 h
Active and inactive are the calls of the source. Rule as the data show it: active = GI50 up to about 1.1 µM and inactive = higher.

COMPOUND: O=C(O)CCC(NC(=O)c1ccc(Oc2nc3ccccc3nc2C(=O)O)cc1)C(=O)O (stereo unspecified)
GI50: > 100 µM (inactive)
//
COMPOUND: Cc1n[nH]c(=O)n1Nc1ccccc1
GI50: > 100 µM (inactive)
//
COMPOUND: O=C(NCC(=O)N1CCOC1=O)OCc1ccccc1
GI50: > 100 µM (inactive)
//
COMPOUND: O=[N+]([O-])C(/C(Cl)=C(/Cl)N1CCCCC1)=C1\NCCO1
GI50: > 100 µM (inactive)
//
COMPOUND: CN(/N=C/c1ccccn1)C1=NCCN1
GI50: > 100 µM (inactive)
//
COMPOUND: CC[C@]12C=CCN3CC[C@@]4(c5cc(Br)c(OC)cc5N(C)[C@H]4[C@@](O)(C(=O)NN)[C@@H]1O)[C@@H]32
GI50: 67.3 µM (inactive)
//
COMPOUND: Cc1ccc(NCc2nnc3c(-c4ccccc4)nc4ccccc4n23)cc1
GI50: 64 µM (inactive)
//
COMPOUND: S=C(S)N1CCN(c2cccc(Cl)c2)CC1
GI50: 39.8 µM (inactive)
//
COMPOUND: Cc1ccc(S(=O)(=O)Nc2nc3ccccc3c(=O)n2C2CCCCC2)cc1
GI50: > 100 µM (inactive)
//
COMPOUND: O=C(O)C(Cc1ccccc1)NCc1c(O)ccc2c(-c3ccccc3)cc(=O)oc12 (stereo unspecified)
GI50: > 100 µM (inactive)
//
COMPOUND: COc1ccc(/N=C2\C(=N/c3ccc(OC)cc3)N(c3ccc(N(C)C)cc3)C(=S)N2c2ccc(OC)cc2)cc1
GI50: > 100 µM (inactive)

* * *

System: NCI-H522
Assay: NCI tumour cell line growth inhibition, 48 h
The source made the active and inactive calls. No stated cut-off is given here; in the data, active = GI50 up to about 1.1 µM and inactive = higher.
Parameter GI50: see the listing below.
PROPERTY: GI50

COMPOUND: CC(=O)OCC1OC(Nc2ccc3nc(C)n(-c4cccc(C)c4)c(=O)c3c2)C(OC(C)=O)C(OC(C)=O)C1OC(C)=O (stereo not given)
REPORTED: > 62.5 µM (inactive)
--
COMPOUND: Nc1nnc2c(-c3ccccc3)n[nH]c2n1
REPORTED: > 100 µM (inactive)
--
COMPOUND: CC1=C(C(=O)OCCO[N+](=O)[O-])C(c2cccc([N+](=O)[O-])c2)C(C(=O)OC(C)C)=C(C)N1 (stereo not given)
REPORTED: 17.8 µM (inactive)
--
COMPOUND: C/C=C1\CC(C(=O)OCC)CCCCCCCCCCC1=O (stereo not given)
REPORTED: 25.5 µM (inactive)
--
COMPOUND: COc1ccc(/C=N\N(C)Cc2cccc3ccsc23)cc1
REPORTED: > 100 µM (inactive)

* * *

Test system: SF-539
Experiment: NCI tumour cell line growth inhibition, 48 h
Activity calls are given as the source filed them. Cut-off read from the data, not from the text of the source: active = GI50 up to about 1.1 µM and inactive = higher.
Parameter GI50: see the listing below.
PROPERTY: GI50

COMPOUND: C[C@H]1C2Cc3cc(N)ccc3[C@@]1(C)CCN2CCc1ccccc1
TESTED ON: SF-539
PROPERTY: GI50
REPORTED: 45.2 µM (inactive)

COMPOUND: COC(=O)CCC(=O)NC1=C(NCc2ccccc2)C(=O)c2ccccc2C1=O
TESTED ON: SF-539
PROPERTY: GI50
REPORTED: 20.1 µM (inactive)

COMPOUND: COc1ccc(/C=c2/sc3n(c2=O)NC(c2ccc(Cl)cc2)NN=3)cc1 (centres undefined)
TESTED ON: SF-539
PROPERTY: GI50
REPORTED: > 100 µM (inactive)

COMPOUND: CC1(C)N=C(c2ccccc2)SC12S[C@@H]1CCCC[C@H]1S2
TESTED ON: SF-539
PROPERTY: GI50
REPORTED: > 100 µM (inactive)

COMPOUND: O=C(Nc1ccc(Cl)cc1)c1cc2cc(/N=N/c3ccccc3Cl)ccc2oc1=O
TESTED ON: SF-539
PROPERTY: GI50
REPORTED: 14 µM (inactive)

COMPOUND: O=C(Nc1cccc([N+](=O)[O-])c1)C(=O)C(C(=O)c1ccccc1F)C1OC(=O)C2C=CC=CC21 (centres undefined)
TESTED ON: SF-539
PROPERTY: GI50
REPORTED: 24 µM (inactive)

COMPOUND: Cc1nn(C(=O)c2ccncc2)c2c1C(c1ccccc1)SC(=N)N2 (centres undefined)
TESTED ON: SF-539
PROPERTY: GI50
REPORTED: > 10 µM (inactive)

COMPOUND: CSc1nc(NC2OCC(OC(C)=O)C(OC(C)=O)C2OC(C)=O)c(/N=C(\C)C(C)=O)c(=O)[nH]1 (centres undefined)
TESTED ON: SF-539
PROPERTY: GI50
REPORTED: > 100 µM (inactive)

COMPOUND: C=CCN1/C(=C2\SC(=S)N(c3ccc(C)cc3)C2=O)Sc2c1nc[nH]c2=O
TESTED ON: SF-539
PROPERTY: GI50
REPORTED: 48.3 µM (inactive)
